Measured values drawn from patent US20210220356A1 for this set.

run_description: Cytotoxicity determination in HepG2.2.15 cells (CCK-8)
Format: cell-based
test_settings: human, HepG2.2.15 cells, HepG2.2.15 cells, 5,000 cells/well, 6 days of compound treatment, CCK-8 absorbance 450 nm, highest concentration 100 uM
In this section, each of the compounds is paired with its reported CC50 at 6 days.
property_measured: CC50 at 6 days (µM)

compound | property_measured | val
COC(=O)C1=C(C2CCc3nn(CCC(=O)O)cc3C2)NC(c2nccs2)=NC1c1ccc(F)cc1C (stereo not drawn) [Compound 80c] | CC50 at 6 days | 33.2
COC(=O)C1=C(C2CCc3[nH]ncc3C2)NC(c2nccs2)=NC1c1ccc(F)c(F)c1Cl (single isomer, unassigned) [Compound 65a] | CC50 at 6 days | 11.8
COC(=O)C1=C(C2CCc3nn(CCC(=O)O)cc3C2)NC(c2nccs2)=NC1c1ccc(F)c(F)c1Cl (single isomer, unassigned) [Compound 70b] | CC50 at 6 days | 22.7

====

System: HepG2.2.15 cells
run_description: Cytotoxicity determination in HepG2.2.15 cells (CCK-8)
Assay type: cell-based
test_settings: HepG2.2.15 cells, 5,000 cells/well, 6 days of compound treatment, CCK-8 absorbance 450 nm, highest concentration 100 uM

molecule | target_or_system | CC50
CCOC(=O)C1=C(C2CCc3nn(C(C)CC(=O)O)cc3C2)NC(c2nccs2)=NC1c1ccc(F)c(F)c1Cl (single isomer, unassigned) [Compound 51c] | HepG2.2.15 cells | 8.6 µM
CCOC(=O)C1=C(C2CCc3nn(CCC(=O)O)cc3C2)NC(c2nccs2)=NC1c1ccc(F)c(F)c1Br (single isomer, unassigned) [Compound 36b] | HepG2.2.15 cells | 11.7 µM
CCOC(=O)C1=C(C2CCc3oc(CCC(=O)O)nc3C2)NC(c2nccs2)=NC1c1ccc(F)c(F)c1Cl (single isomer, unassigned) [Compound 57f] | HepG2.2.15 cells | 12.6 µM

====

Test system: HBV
run_description: HBV inhibitory activity in HepG2.2.15 cells (HBV DNA in culture medium by q-PCR)
Format: cell-based
test_settings: HepG2.2.15 cells, 40,000 cells/well, 6 days of compound treatment, HBV DNA in culture medium by q-PCR, highest concentration 10 uM; read-out: EC50
pEC50: −log10 of the molar value.
property_measured: pEC50

molecule | property_measured | val
CCOC(=O)C1=C(C2CCc3nn(CC(=O)O)cc3C2)NC(c2nccs2)=NC1c1ccc(F)c(F)c1Cl (single isomer, unassigned) [Compound 49c] | pEC50 | 6.96
COC(=O)C1=C(C2CCc3nn(C(C)(C)CC(=O)O)cc3C2)NC(c2nccs2)=NC1c1ccc(F)c(F)c1Cl (single isomer, unassigned) [Compound 82c] | pEC50 | 8.19
COC(=O)C1=C(C2CCc3nn(CCCC(=O)O)cc3C2)NC(c2nccs2)=NC1c1ccc(F)c(F)c1Cl (single isomer, unassigned) [Compound 74B] | pEC50 | 7.18
COC(=O)C1=C(C2CCc3nn(CCC(=O)O)cc3C2)NC(c2nccs2)=NC1c1ccc(F)c(F)c1Cl (single isomer, unassigned) [Compound 70b] | pEC50 | 7.08
